# STUDY_SYSTEM: 17-beta-hydroxysteroid dehydrogenase type 2 (Homo sapiens) (UniProt P37059)
# Sequence (whole entry): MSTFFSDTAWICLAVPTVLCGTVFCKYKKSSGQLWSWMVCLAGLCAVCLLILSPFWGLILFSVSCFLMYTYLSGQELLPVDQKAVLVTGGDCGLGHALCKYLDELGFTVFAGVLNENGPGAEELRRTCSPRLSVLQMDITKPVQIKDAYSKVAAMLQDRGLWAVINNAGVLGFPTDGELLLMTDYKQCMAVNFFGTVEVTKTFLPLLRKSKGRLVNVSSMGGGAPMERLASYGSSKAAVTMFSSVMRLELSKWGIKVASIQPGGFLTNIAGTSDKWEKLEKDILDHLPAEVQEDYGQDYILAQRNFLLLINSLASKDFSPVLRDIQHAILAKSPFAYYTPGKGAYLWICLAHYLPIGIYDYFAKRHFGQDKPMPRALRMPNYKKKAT
# TEST_DETAILS: Inhibition of human placental cytosolic 17beta-HSD2 using [2,4,6,7-3H]-labeled E2/E2 as substrate and NADH at 1 uM after 10 mins by HPLC based radioflow detection method
Listed here: items and their measured inhibition.

{"MOLECULE_SMILES": "Cc1cc(-c2ccc3ccc(C(=O)c4ccc(F)c(O)c4)nc3c2)ccc1O", "STUDY_SYSTEM": "17-beta-hydroxysteroid dehydrogenase type 2 (Homo sapiens) (UniProt P37059)", "inhibition": "80%"}
{"MOLECULE_SMILES": "CN(c1ccc(F)c(O)c1)c1cccc(-c2cccc(O)c2F)n1", "STUDY_SYSTEM": "17-beta-hydroxysteroid dehydrogenase type 2 (Homo sapiens) (UniProt P37059)", "inhibition": "100%"}
{"MOLECULE_SMILES": "Nc1ccc2ccc(C(=O)c3ccc(F)c(O)c3)nc2c1", "STUDY_SYSTEM": "17-beta-hydroxysteroid dehydrogenase type 2 (Homo sapiens) (UniProt P37059)", "inhibition": "83%"}
{"MOLECULE_SMILES": "Cc1ccc2nc(C(=O)c3ccc(F)c(O)c3)ccc2c1", "STUDY_SYSTEM": "17-beta-hydroxysteroid dehydrogenase type 2 (Homo sapiens) (UniProt P37059)", "inhibition": "78%"}
{"MOLECULE_SMILES": "N#Cc1ccc2ccc(C(=O)c3ccc(F)c(O)c3)nc2c1", "STUDY_SYSTEM": "17-beta-hydroxysteroid dehydrogenase type 2 (Homo sapiens) (UniProt P37059)", "inhibition": "56%"}
{"MOLECULE_SMILES": "O=C(c1ccc(F)c(O)c1)c1ccc2ccccc2n1", "STUDY_SYSTEM": "17-beta-hydroxysteroid dehydrogenase type 2 (Homo sapiens) (UniProt P37059)", "inhibition": "76%"}
{"MOLECULE_SMILES": "Oc1cc(Nc2cccc(-c3cccc(O)c3F)n2)ccc1F", "STUDY_SYSTEM": "17-beta-hydroxysteroid dehydrogenase type 2 (Homo sapiens) (UniProt P37059)", "inhibition": "82%"}
{"MOLECULE_SMILES": "O=C(c1ccc(F)c(O)c1)c1ccc2ccccc2c1", "STUDY_SYSTEM": "17-beta-hydroxysteroid dehydrogenase type 2 (Homo sapiens) (UniProt P37059)", "inhibition": "96%"}

Identify measured inhibition corresponding to O=C(c1ccc(F)c(O)c1)c1ccc2ccc(-c3nnn[nH]3)cc2n1 52%

Read the entry O=C(c1ccc(F)c(O)c1)c1cccc(-c2cccc(O)c2F)n1 and write its reported inhibition. 56%

Give me measured inhibition, please, for this compound: O=C(c1ccc(F)c(O)c1)c1ccc2cc(O)ccc2n1 71%

Give a short answer stating reported inhibition for Oc1cc(Oc2cccc(-c3cccc(O)c3F)n2)ccc1F . 100%

Return inhibition for the following compound: C=C(c1ccc(F)c(O)c1)c1cccc(-c2cccc(O)c2F)n1 100%
